system: K4 kissing-loop RNA reporter; test: apparent KD of K4 kissing-loop reporter; higher = weaker reporter binding; conditions: Eterna round: R107; input ligand: none;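 note: bound reporter read as fluorescence of individual clusters on recovered sequencing chips by microscopy, with normalized cluster intensities fitted with a binding model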
Entries and their apparent KD of K4 kissing-loop reporter
Return type: number; implicit unit nM.

AAAAUAAACCAGUGAUGUUGGUAGCCAGAUACCAGCGACGAAAGUCGCCCUUGGCAGCUGUGGACGUACAAAAUAAGUACGUCCU
268
GGUGACGGCCAGGAGUGAUGUAUAGAAUAGCGAGGACCGGUACGGCCGCCACUCGUGAAGAAAAGGGAGUGAUGUUCCGUAAUGU [Kazoo]
75.3
AGUGGACGUGUCCGGAGUGAUGUUCCGGAUACCAGACACGAAAGUGUCCCUUGGCAGCCGGAGUGAUGUUCCGGCGUUCACUAAA [Omei KL Theo A Exc B v1]
243
GAGGUACAGGCGGCCGCCACUAGUGAUGUUAGUGAUAAAAGAUAUAGUAAAUAUCGGCAUGUAGAUAGGACCGGGCCUGAUGGAG [ptvcmullin]
234
AAUAAAAUCACGGCCGCCACUGAUACUAGUAUUAGCAGUGAUGUUGCUAUGUAUAAUUUAUUAAAUAGGACCGGGUGAAUAUUUA [#25 K4 Tryptophan B Exclusion]
267
GUGCAGUGAUGUUGCACGAGGAAAGACGAUACCAGCCGUAAAUAAGGCCCUUGGCAGCGUAGGCUAGCAUAAAGUAUGCCAGUCU [Geleerra]
121

Query string: Quick one: apparent KD of K4 kissing-loop reporter for UGAUAGGACAGAAGGAGCGGAGCUGGUCAAAGACCAGCAAUACGUUAAAUAGGAGUGAUGUUCCAGGUAGGUCGCUGUCCUAUCU [ArgBX 28 #SwitchBubble #StaticStem] ?
Result string: 121

Query string: Quick one: apparent KD of K4 kissing-loop reporter for GGUGUUGUUUGUGCCGCCUUCCUCGUUCCUCGAGGACCGGUACGGCCGCCACUCGAGUGAUGUUUGGGUAGCGAUCCCUGUUAGU [Bdazzled - #11 Exc. Tryptophan A] ?
Result string: 892

Query string: Quick one: apparent KD of K4 kissing-loop reporter for GAAAGAAAGUAUGAUACCAGACACCCGAGUGAUGUUCGGAGCAGUGUGAUGUUCUUUUAAGUCCCUUGGCAGCAUAAAAGAAAAG [whbob_SS_Theo_B_sa84] ?
Result string: 126

* * *

Entries and their apparent KD of MS2 coat protein
system: MS2 coat protein; test: apparent KD of MS2 coat protein; higher = weaker reporter binding; conditions: Eterna round: R107; input ligand: none
Return type: number; implicit unit nM.

In the examples that follow, each entry is paired with its recorded apparent KD of MS2 coat protein.
CUCCUGGGAGCGGCCGCCACUGGAGGCCUUGCGCGACAUGAGGAUCACCCAUGUUGGCCCGGCCUCAGGACCGGGUUCGCGCGAG [Same State - Tryptophan B Attempt #2]
11.3
ACACAUGAGGAUCAUCCAUGUGCCCAUGAAGGAGCGUGGGAAACCACAGGUAGGUCGCAUGACAUGAGGAUCACCCAUGUUUAUU [#03 Exclusion - Arginine A]
204

Okay, now this sequence:
Query string: Quick one: apparent KD of MS2 coat protein for GCUUGGGUCGCACGGCCCUGGCGGUGCGAUACCAGCACGGUAACGUGCCCUUGGCAGCGCACAUGAGGAUCACCCAUGUGGUGCG [#1 Exclusion - Theophylline A Attempt #23 (HarryS)] ?
Result string: 12.6

# credit: the supplement of paper PMC9170038
